- System: Leukemia P388
- measurementNotes: In vitro cytotoxic activity (MTT) assay, Leukemia P388
- Format: cell-based
- conditionNotes: Mus musculus; Murine Leukemia P388 cells, exposed for 96 hours
recordedMetric: pIC50
# pIC50 is unitless: minus log10 of the molar concentration; print number only

Kindly note the recorded pIC50 for O=C(O)c1ccc2[nH]c3c(=O)[nH]cc(Nc4cccc(Cl)c4)c3c2c1 [Example 3] , which is 5.26

###

- System: MCF7 (breast)
- measurementNotes: In vitro cytotoxic activity (MTT) assay, MCF7
- Assay type: cell-based
- conditionNotes: Human MCF7 (breast) cells, exposed for 96 hours
recordedMetric: pIC50
# pIC50 is unitless: minus log10 of the molar concentration; print number only

Kindly note the recorded pIC50 for O=C(O)c1ccc2[nH]c3c(=O)[nH]cc(Nc4cccc(Cl)c4)c3c2c1 , which is 5.12
